Experiment: activity coefficient (dimensionless); of the first substance listed, at infinite dilution; xn = mol fraction of the nth substance listed
Details: 353.3 K; 101 kPa; Liquid; Chromatography; x1 = 0
Kindly apply the following: Yes if activity coefficient is less than 4, No in every other case.

{"molecule": "CCCCCC [hexane] + CCCCC[n+]1ccccc1.O=S(=O)([N-]S(=O)(=O)C(F)(F)F)C(F)(F)F", "assigned_class": "No"}
{"molecule": "CC1CCCCC1 [methylcyclohexane] + CCCCC[n+]1ccccc1.O=S(=O)([N-]S(=O)(=O)C(F)(F)F)C(F)(F)F", "assigned_class": "No"}
{"molecule": "CCCCCCCCC [nonane] + CCCCC[n+]1ccccc1.O=S(=O)([N-]S(=O)(=O)C(F)(F)F)C(F)(F)F", "assigned_class": "No"}
{"molecule": "C#CCCCC [1-hexyne] + CCCCC[n+]1ccccc1.O=S(=O)([N-]S(=O)(=O)C(F)(F)F)C(F)(F)F", "assigned_class": "Yes"}
{"molecule": "CCCCCCC [heptane] + CCCCC[n+]1ccccc1.O=S(=O)([N-]S(=O)(=O)C(F)(F)F)C(F)(F)F", "assigned_class": "No"}
{"molecule": "CCCO [propan-1-ol] + CCCCC[n+]1ccccc1.O=S(=O)([N-]S(=O)(=O)C(F)(F)F)C(F)(F)F", "assigned_class": "Yes"}
{"molecule": "CO [methanol] + CCCC[n+]1ccccc1.O=S(=O)([N-]S(=O)(=O)C(F)(F)F)C(F)(F)F", "assigned_class": "Yes"}
{"molecule": "Cc1ccc(C)cc1 [1,4-dimethylbenzene] + CCCCC[n+]1ccccc1.O=S(=O)([N-]S(=O)(=O)C(F)(F)F)C(F)(F)F", "assigned_class": "Yes"}
{"molecule": "CCCCCCCC [octane] + CCCCC[n+]1ccccc1.O=S(=O)([N-]S(=O)(=O)C(F)(F)F)C(F)(F)F", "assigned_class": "No"}
{"molecule": "c1ccccc1 [benzene] + CCCC[n+]1ccccc1.O=S(=O)([N-]S(=O)(=O)C(F)(F)F)C(F)(F)F", "assigned_class": "Yes"}
{"molecule": "Cc1ccc(C)cc1 [1,4-dimethylbenzene] + CCCC[n+]1ccccc1.O=S(=O)([N-]S(=O)(=O)C(F)(F)F)C(F)(F)F", "assigned_class": "Yes"}
{"molecule": "C#CCCCCCC [1-octyne] + CCCCC[n+]1ccccc1.O=S(=O)([N-]S(=O)(=O)C(F)(F)F)C(F)(F)F", "assigned_class": "No"}
{"molecule": "Cc1ccccc1 [toluene] + CC[n+]1ccccc1.O=S(=O)([N-]S(=O)(=O)C(F)(F)F)C(F)(F)F", "assigned_class": "Yes"}
{"molecule": "Cc1cccc(C)c1 [1,3-dimethylbenzene] + CCCC[n+]1ccccc1.O=S(=O)([N-]S(=O)(=O)C(F)(F)F)C(F)(F)F", "assigned_class": "Yes"}

###

Assay: activity coefficient (dimensionless); of the first substance listed, at infinite dilution; xn = mol fraction of the nth substance listed
Conditions: 323.2 K; 101 kPa; Liquid; Chromatography; x1 = 0
Returns Yes if the recorded activity coefficient is greater than or equal to 4, and No otherwise.

{"compound": "C=CCCCCCC [oct-1-ene] + CC[n+]1ccccc1.O=S(=O)([N-]S(=O)(=O)C(F)(F)F)C(F)(F)F", "assigned_class": "Yes"}
{"compound": "c1ccccc1 [benzene] + CCCC[n+]1ccccc1.O=S(=O)([N-]S(=O)(=O)C(F)(F)F)C(F)(F)F", "assigned_class": "No"}
{"compound": "C#CCCC [1-pentyne] + CCCC[n+]1ccccc1.O=S(=O)([N-]S(=O)(=O)C(F)(F)F)C(F)(F)F", "assigned_class": "No"}
{"compound": "CCCCCC [hexane] + CCCC[n+]1ccccc1.O=S(=O)([N-]S(=O)(=O)C(F)(F)F)C(F)(F)F", "assigned_class": "Yes"}
{"compound": "Cc1ccc(C)cc1 [1,4-dimethylbenzene] + CC[n+]1ccccc1.O=S(=O)([N-]S(=O)(=O)C(F)(F)F)C(F)(F)F", "assigned_class": "No"}
{"compound": "C#CCCCCCC [1-octyne] + CCCC[n+]1ccccc1.O=S(=O)([N-]S(=O)(=O)C(F)(F)F)C(F)(F)F", "assigned_class": "Yes"}

Data origin, for the record: the NIST ThermoML archive (doi:10.1016/j.jct.2010.06.009)
